TARGET OF ASSAY: PARP7 (Homo sapiens, UniProt Q7Z3E1);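 note: MSD light signal quantifying PARP7 captured by a plate-immobilized probe, read after 1.5 h equilibration plus 1.5 h with SULFO-TAG anti-GST antibody at room temperature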
pIC50: −log10 of the molar value.
Each record here notes measured pIC50.
MEASURE NAME: pIC50

O=C([C@H]1CCC[C@H](Nc2cc(C(F)(F)F)c(=O)[nH]n2)C1)N1CCN(c2ncc(C(F)(F)F)cn2)CC1
8.75
O=C(OCCCc1cc(C(F)(F)F)c(=O)[nH]n1)N1CCN(c2ncc(C(F)(F)F)cn2)CC1
8.87
O=C(CCCCc1cc(C(F)(F)F)c(=O)[nH]n1)N1CCN(c2ncc(C(F)(F)F)cn2)CC1
9.54
O=C(CCCCNc1cc(C(F)(F)F)c(=O)[nH]n1)N1CCN(c2ncc(C(F)(F)F)cn2)CC1
9.28

* * *

Protein target, amino acids: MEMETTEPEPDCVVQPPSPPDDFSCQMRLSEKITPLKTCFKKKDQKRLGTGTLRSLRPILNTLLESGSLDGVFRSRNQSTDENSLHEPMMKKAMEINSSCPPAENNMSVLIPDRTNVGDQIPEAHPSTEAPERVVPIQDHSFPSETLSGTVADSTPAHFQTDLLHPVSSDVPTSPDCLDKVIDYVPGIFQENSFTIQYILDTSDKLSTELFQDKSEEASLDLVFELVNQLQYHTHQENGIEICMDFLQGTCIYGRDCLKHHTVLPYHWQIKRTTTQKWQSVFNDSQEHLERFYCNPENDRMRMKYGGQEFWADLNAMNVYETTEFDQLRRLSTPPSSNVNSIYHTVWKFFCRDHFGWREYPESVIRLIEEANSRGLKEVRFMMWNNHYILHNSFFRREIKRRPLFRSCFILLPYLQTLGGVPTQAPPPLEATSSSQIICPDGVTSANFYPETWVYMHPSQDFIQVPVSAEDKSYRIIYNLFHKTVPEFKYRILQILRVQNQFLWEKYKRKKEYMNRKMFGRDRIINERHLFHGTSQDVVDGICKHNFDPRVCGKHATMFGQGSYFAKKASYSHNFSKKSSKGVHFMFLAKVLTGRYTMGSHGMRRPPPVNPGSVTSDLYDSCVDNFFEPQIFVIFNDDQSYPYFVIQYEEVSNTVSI
pIC50: −log10 of the molar value.
Assign class by pIC50: not lower than 9 means criterion met; lower than 9 means criterion not met.

O=C([C@@H]1CN(c2cc(C(F)(F)F)c(=O)[nH]n2)CCO1)N1CCN(c2ncc(C(F)(F)F)cn2)CC1
criterion not met
[2H]C1([2H])N(C(=O)CCCCc2cc(C(F)(F)F)c(=O)[nH]n2)C([2H])([2H])C([2H])([2H])N(c2ncc(C(F)(F)F)cn2)C1([2H])[2H]
criterion met
N#Cc1ccc(N2CCN(C(=O)CCCNc3cc(C(F)(F)F)c(=O)[nH]n3)CC2)nc1
criterion met
O=C([C@@H]1Cc2ccccc2CN1c1cc(C(F)(F)F)c(=O)[nH]n1)N1CCN(c2ncc(C(F)(F)F)cn2)CC1
criterion not met
O=C(C[C@H]1CCCCN1c1cc(C(F)(F)F)c(=O)[nH]n1)N1CCN(c2ncc(C(F)(F)F)cn2)CC1
criterion not met

* * *

pIC50: −log10 of the molar value.
Reported pIC50, PARP7 (Homo sapiens).
MEASURE NAME: pIC50

O=C([C@@H]1CC[C@H](Nc2cc(C(F)(F)F)c(=O)[nH]n2)C1)N1CCN(c2ncc(C(F)(F)F)cn2)CC1 [Example 62]
8.89
O=C([C@@H]1C[C@@H]1CNc1cc(C(F)(F)F)c(=O)[nH]n1)N1CCN(c2ncc(C(F)(F)F)cn2)CC1 (racemic) [Example 24]
8.99
O=C(N1CCN(c2ncc(C(F)(F)F)cn2)CC1)C(F)(F)CCNc1cc(C(F)(F)F)c(=O)[nH]n1 [Example 72]
9.30
O=C(CC[C@@H]1CCCCN1c1cc(C(F)(F)F)c(=O)[nH]n1)N1CCN(c2ncc(C(F)(F)F)cn2)CC1 [Example 31]
9.17
O=C(C[C@@H]1CCN(c2cc(C(F)(F)F)c(=O)[nH]n2)C1)N1CCN(c2ncc(C(F)(F)F)cn2)CC1 [Example 67]
9.07
O=C([C@@H]1CCC[C@H](Nc2cc(C(F)(F)F)c(=O)[nH]n2)C1)N1CCN(c2ncc(C(F)(F)F)cn2)CC1 [Example 60]
8.97
O=C(c1cccc(CNc2cc(C(F)(F)F)c(=O)[nH]n2)c1)N1CCN(c2ncc(C(F)(F)F)cn2)CC1 [Example 19]
7.79
O=C(c1cccc(Nc2cc(C(F)(F)F)c(=O)[nH]n2)c1)N1CCN(c2ncc(C(F)(F)F)cn2)CC1 [Example 18]
7.49
O=C(CCNCc1cc(C(F)(F)F)c(=O)[nH]n1)N1CCN(c2ncc(C(F)(F)F)cn2)CC1 [Example 73]
8.75
O=C(CCC[C@H]1CCc2c1n[nH]c(=O)c2C(F)(F)F)N1CCN(c2ncc(C(F)(F)F)cn2)CC1 [Example 79]
8.57
O=C(CC[C@@H](Nc1cc(C(F)(F)F)c(=O)[nH]n1)C(F)F)N1CCN(c2ncc(C(F)(F)F)cn2)CC1 [Example 40]
9.56
O=C(CCCc1cc(C(F)(F)F)c(=O)[nH]n1)N1CCN(c2ncc(C(F)(F)F)cn2)CC1 [Example 11]
8.33
